These data points were gathered from patent US20260242478A1.

molecular target: T1, Anti-CD28 Fab (SEQ ID NOs: 696, 697); assay: phage binding ELISA on plate-captured anti-CD28 Fab pre-incubated with CD28 antigen (competitor: CD28)
T1 construct: In the phage ELISA the Fab was biotinylated and captured on neutravidin coated plates
T1 sequence (VH, as listed by the source, chain 1 of 2): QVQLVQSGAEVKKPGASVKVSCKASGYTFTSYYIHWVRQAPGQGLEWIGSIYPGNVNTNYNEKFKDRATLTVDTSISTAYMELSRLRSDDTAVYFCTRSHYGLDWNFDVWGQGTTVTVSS
T1 sequence (VL, as listed by the source, chain 2 of 2): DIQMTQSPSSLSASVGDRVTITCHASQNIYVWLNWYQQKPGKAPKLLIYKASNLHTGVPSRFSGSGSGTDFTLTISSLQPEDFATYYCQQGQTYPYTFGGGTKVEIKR
Recorded Anti-CD28 Fab signal in the presence of CD28 values for a group of binders are listed next.
property_label: Anti-CD28 Fab signal in the presence of CD28

binder: SCAAGATYEWPICL [Phage-1521 (Peptide-92 library sequence, SEQ ID NO: 1817)]
recorded_measurement: 0.05
//
binder: TCAAGAMWTWPECL [Phage-1528 (Peptide-92 library sequence, SEQ ID NO: 1824)]
recorded_measurement: 0.07
//
binder: LCAAGAAYPWPMCL [Phage-1520 (Peptide-92 library sequence, SEQ ID NO: 1816)]
recorded_measurement: 0.06
//
binder: TCSAGFSYKWPWCL [Phage-1527 (Peptide-92 library sequence, SEQ ID NO: 1823)]
recorded_measurement: 0.06
//
binder: WCAAGASYPWPWCL [Phage-1524 (Peptide-92 library sequence, SEQ ID NO: 1820)]
recorded_measurement: 0.05
//
binder: TCTAVFPYEWPRCL [Phage-1525 (Peptide-92 library sequence, SEQ ID NO: 1821)]
recorded_measurement: 0.07
//
binder: SCAAGATFHWPMCF [Phage-1526 (Peptide-92 library sequence, SEQ ID NO: 1822)]
recorded_measurement: 0.09
//
binder: SCAAGAQYGWPMCL [Phage-1523 (Peptide-92 library sequence, SEQ ID NO: 1819)]
recorded_measurement: 0.05
//
binder: TCSAGAAYAWPYCL [Phage-1519 (Peptide-92 library sequence, SEQ ID NO: 1815)]
recorded_measurement: 0.07
//
binder: TCAAGATYPWPECM [Phage-1529 (Peptide-92 library sequence, SEQ ID NO: 1825)]
recorded_measurement: 0.06
